# SYSTEM_TESTED: CDK4/cyclin D1 (Homo sapiens, UniProt P11802)
# Sequence (P11802 whole entry, species assumed): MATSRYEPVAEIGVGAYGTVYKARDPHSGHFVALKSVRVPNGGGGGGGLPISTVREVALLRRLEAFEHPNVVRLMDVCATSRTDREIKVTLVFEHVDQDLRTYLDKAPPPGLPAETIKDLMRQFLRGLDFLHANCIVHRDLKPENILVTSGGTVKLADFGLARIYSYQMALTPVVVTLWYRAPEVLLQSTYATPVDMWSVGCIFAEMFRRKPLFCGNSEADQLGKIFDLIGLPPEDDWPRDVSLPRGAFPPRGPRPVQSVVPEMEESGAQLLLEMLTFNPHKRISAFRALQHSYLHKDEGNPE
# Sequence (P24385 whole entry partner, species assumed): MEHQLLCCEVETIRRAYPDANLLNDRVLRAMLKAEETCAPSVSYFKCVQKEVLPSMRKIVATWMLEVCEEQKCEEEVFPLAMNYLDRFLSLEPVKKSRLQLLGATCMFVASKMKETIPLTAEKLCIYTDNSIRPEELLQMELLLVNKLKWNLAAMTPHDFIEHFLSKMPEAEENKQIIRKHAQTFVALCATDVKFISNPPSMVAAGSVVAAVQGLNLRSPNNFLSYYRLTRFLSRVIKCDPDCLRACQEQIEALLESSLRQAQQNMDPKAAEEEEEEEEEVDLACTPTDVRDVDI
# TEST_METHOD_NOTES: Assay of kinase activity (ADP-Glo)
# CONDITION_NOTES: kinase inhibitory activity
pIC50: −log10 of the molar value.
MEASUREMENT_KIND: pIC50

Solved entries (count: 5):
INPUT: Dear colleague, I am looking for the recorded pIC50 of the following compound: C[C@@H](CO)n1nnc2ccc3cnc(Nc4ccc(C(=O)N5CCOCC5)cc4)nc3c21 [Example I-49]
OUTPUT: 7.68

INPUT: Dear colleague, I am looking for the recorded pIC50 of the following compound: CC(C)n1nnc2ccc3cnc(Nc4ccc(C(=O)N5CCOCC5)cc4)nc3c21 [Example I-35]
OUTPUT: 8.70

INPUT: Dear colleague, I am looking for the recorded pIC50 of the following compound: CC(C)n1nnc2ccc3cnc(Nc4ccc(C(=O)N5CCNCC5)c(F)c4)nc3c21 [Example I-19]
OUTPUT: 8.70

INPUT: Dear colleague, I am looking for the recorded pIC50 of the following compound: C[C@@H](n1nnc2ccc3cnc(Nc4ccc(C(=O)N5CCNCC5)cc4)nc3c21)C(C)(C)O [Example I-56]
OUTPUT: 9.00

INPUT: Dear colleague, I am looking for the recorded pIC50 of the following compound: C[C@@H](n1nnc2ccc3cnc(Nc4ccc(C(=O)N5CCCN(C)CC5)cc4)nc3c21)C(C)(C)O [Example I-61]
OUTPUT: 9.00

(a) CC(C)(O)Cn1nnc2ccc3cnc(Nc4ccc(C(=O)N5CCNCC5)cc4)nc3c21 [Example I-52]
(b) CC(C)n1nnc2ccc3cnc(Nc4ccc(C(=O)N5CCC(O)C5)cc4)nc3c21 (stereo not drawn) [Example I-3]
(c) C[C@@H](n1nnc2ccc3cnc(Nc4ccc(C(=O)N5CCS(=O)(=O)CC5)cc4)nc3c21)C(C)(C)O [Example I-59]
INPUT: Rank items: key pIC50, increasing. Answer by naming the labels in the order asked.
OUTPUT: a, c, b

(a) CC(C)n1nnc2ccc3cnc(Nc4ccc(C(=O)N5CCN(CCCO)CC5)cc4)nc3c21 [Example I-31]
(b) C[C@@H](n1nnc2ccc3cnc(Nc4ccc(C(=O)N5CCCNCC5)cc4)nc3c21)C(C)(C)O [Example I-60]
(c) CC(C)n1nnc2ccc3cnc(Nc4ccc(C(=O)N5CC[C@@H](O)[C@H](N)C5)cc4)nc3c21 [Example I-13]
(d) CC[C@H](Nc1nc(NCc2cnc(C)cc2C)c2ncn(C(C)C)c2n1)[C@@H](C)O [CYC-065 (Fadraciclib), reference compound]
INPUT: Rank items: key pIC50, increasing. Answer by naming the labels in the order asked.
OUTPUT: d, a, c, b

(P) CN1CCCN(C(=O)c2ccc(Nc3ncc4ccc5nnn([C@@H]6CCC[C@@]6(C)O)c5c4n3)cc2)CC1 [Example I-70]
(Q) CC(C)n1nnc2ccc3cnc(Nc4ccc(C(=O)N5CCS(=O)(=O)CC5)cc4)nc3c21 [Example I-32]
INPUT: Compare P and Q and name the one whose reported pIC50 is smaller. Indicate your choice by writing its label.
OUTPUT: Q
(Q: 7.82, P: 9.15)

(P) CN1CCN(C(=O)c2ccc(Nc3ncc4ccc5nnn([C@@H]6CCC[C@@]6(C)O)c5c4n3)cc2)CC1 [Example I-66]
(Q) C[C@H](CO)n1nnc2ccc3cnc(Nc4ccc(C(=O)N5CCOCC5)cc4)nc3c21 [Example I-51]
INPUT: # argmax over pIC50 for candidates P and Q Indicate your choice by writing its label.
OUTPUT: P
(P: 9.00, Q: 8.15)
